Overview of recorded inhibition for various compounds
assay: inhibition of PEG-3 promoter activity – cell-based, HeLa, luciferase luminescence, primary screen (AID 588405); conditions: HeLa PEG-Prom luciferase reporter, overnight, at 20 µM, hits give high values
About 6,200 (1.7%) of roughly 360,000 compounds were called active. The sample holds actives, similar compounds and a random draw of the others, so the mix is not that of the screen.

| COMPOUND | VALUE_UNITS | inhibition |
| --- | --- | --- |
| O=C(Nc1ccc(Cl)cc1)c1csc([C@H]2C[C@H](O)[C@@H](CO)O2)n1 | % | -232 |
| CC1(C(=O)Nc2cccc3c2CCCC3)CCN1C(=O)CCc1ccc(Cl)cc1Cl (configuration not stated) | % | 36.2 |
| CN(CC(=O)Nc1ccc(Cl)c(C(F)(F)F)c1)C(=O)CCC(=O)c1ccccc1 | % | 12.6 |
| CSc1ncnc2c1ncn2CCCNCC1CCCCC1 | % | -12.2 |
| O=C(Cc1ncc(C(F)(F)F)cc1Cl)Nc1cccc(Br)c1 | % | 3.22 |
| CCCNC(=O)c1cc(C2CCCCN2C(=O)OC)on1 (configuration not stated) | % | 8.59 |
| Cc1nc2c(-c3ccccc3)c(C)[nH]n2c(=O)c1Cl | % | 13.1 |
| CCN(CC)CCN(C(=O)c1ccc2c(c1)CCCC2)c1nc2c(OC)cccc2s1 | % | -7.74 |
| Cc1cc(NC(=O)CSc2ncc(C(F)(F)F)cc2Cl)no1 | % | 5.97 |
| CCCCN1CC(N2CCN(Cc3cccc(C)c3)CC2)CS1(=O)=O (configuration not stated) | % | -1.8 |
| Cc1ccc2nc(-c3ccccc3)c(CC3CCCCC3)n2c1 | % | -146 |
| CCCc1cc(=O)n2[nH]c(C)c(-c3ccc(Cl)cc3)c2n1 | % | 61.5 |
| O=C(CCN1C(=O)[C@@H]2Cc3ccccc3CN2C1=O)NCc1ccccc1 | % | 4.93 |
| COc1ccc(-c2oc3ncn(Cc4ccco4)c(=N)c3c2-c2ccc(OC)cc2)cc1 | % | 9.27 |
| O=C(CC[C@H]1O[C@@H](n2ccc(=O)[nH]c2=O)[C@H](O)[C@@H]1O)N[C@H](Cc1ccccc1)C(=O)NCc1ccco1 | % | 8.94 |
| O=[N+]([O-])c1c(NCCO)cc(Sc2nc3ccccc3s2)c2nonc12 | % | 102 |
| Nc1ncnc2c1ncn2[C@@H]1O[C@H](C(=O)NCC(F)(F)F)[C@@H](O)[C@H]1O | % | 4.09 |
| CCCS(=O)(=O)NC(=O)C1(C)CCN(C(=O)c2sccc2C)C1 (configuration not stated) | % | -4.46 |
| COCc1cc(=O)n2[nH]c(C)c(-c3ccccc3)c2n1 | % | 2.19 |
| CCc1nc2ccc(C(=O)N3CCC(O)(Cc4ccccc4)CC3)cn2c1N(C)C(=O)Cc1ccccc1 | % | 4.95 |
| COc1ccc(-c2oc3ncnc(NCCCO)c3c2-c2ccc(OC)cc2)cc1 | % | 56.5 |
| N#Cc1ccc(-c2ccc3nccn3c2)cc1 | % | -24.7 |

====

assay: inhibition of PEG-3 promoter activity – cell-based, HeLa, luciferase luminescence, primary screen (AID 588405); conditions: HeLa PEG-Prom luciferase reporter, overnight, at 20 µM, hits give high values
Hit rate of the full screen: of about 360,000 compounds, about 6,200 (1.7%) were called active. What follows is part of a selection rich in actives, with near analogues and random picks from the rest.

| MOLECULE | inhibition, % |
| --- | --- |
| Cc1cc(C(=O)CCl)c(C)n1CC1COc2ccccc2O1 (stereo not given) | 103 |
| CCc1nc2ccc(C(=O)N(C)Cc3ccco3)cn2c1N(C)C(=O)Cc1ccccc1 | 8.02 |
| COc1ccc(S(=O)(=O)NC(=O)C2(C)CCN2C(=O)c2ccccc2CCc2ccccc2)cc1 (stereo not given) | -1.34 |
| CCCC(=O)N1CCC1(C)C(=O)NCc1ccc(C(C)C)cc1 (stereo not given) | 1.21 |
| CC(=O)N1CCN(S(=O)(=O)c2ccc(C)c([N+](=O)[O-])c2)C1C(C)C (stereo not given) | 9.74 |

====

test: inhibition of PEG-3 promoter activity – cell-based, HeLa, luciferase luminescence, primary screen (AID 588405); settings: HeLa PEG-Prom luciferase reporter, overnight, at 20 µM, hits give high values
Among all 360,000 compounds or so, about 6,200 (1.7%) were called active. The list comes from a sample in which actives are over-represented; it also holds close analogues and randomly drawn compounds.

| COMPOUND | inhibition (%) |
| --- | --- |
| C#CCOc1ccc(/C=C2/C(=O)ON=C2C)cc1OCC | 27.9 |
| CC1CC(=S)Nc2ccccc2N1Cc1ccccc1 (stereo unspecified) | 55.4 |
| CC1CN(Cc2ccccc2)C(=S)NC1=O (stereo unspecified) | -2.37 |
| CCNC(=S)Nc1ccc2c(c1)c(=O)n(C)n2Cc1ccc(Cl)cc1 | -3.64 |
| CC1CC(=O)Nc2ccccc2N1S(=O)(=O)c1cccs1 (stereo unspecified) | 10.5 |
| COc1cccc(CN(C)C(=O)CC[C@H]2O[C@@H](n3cnc4c(NC(=O)c5ccccc5)ncnc43)[C@H](O)[C@@H]2O)c1 | 4.1 |
| O=C(O)c1ccccc1-c1cccc2nncn12 | -2.07 |
| O=C1c2ccccc2-c2ccccc2NC1O (stereo unspecified) | -8.48 |
| COc1cc(OC)nc(N/N=C(\c2ccccc2)c2ccncc2)n1 | -16.6 |
| C/C(=N/Nc1nc(-c2ccccc2)c(CC(=O)O)s1)c1ccccc1 | -245 |
| CCn1c(CC(=O)Nc2ccc(C)cc2)nnc1SCC(=O)Nc1nc(C)cs1 | -10.4 |

====

# inhibition listing for each entry below
experiment: inhibition of PEG-3 promoter activity – cell-based, HeLa, luciferase luminescence, primary screen (AID 588405); conditions: HeLa PEG-Prom luciferase reporter, overnight, at 20 µM, hits give high values
Among all 360,000 compounds or so, about 6,200 (1.7%) were called active. The entries come from a sample that favours actives as a whole.
READOUT_KIND: inhibition (%)

| COMPOUND | VALUE_OBSERVED |
| --- | --- |
| Nc1cccc(-c2cncc(N3CCN(Cc4ccccn4)CC3)n2)c1 | -8.35 |
| CCOC(=O)N1CCN(C(=O)Cn2cnc3ccccc3c2=O)CC1 | -3.74 |
| NC1=C([N+](=O)[O-])C(c2ccccc2)C2=C(CCCC2=O)O1 (configuration not stated) | 9.24 |
| Cc1oc2c(c1C(=O)N1CCOCC1)C(=O)c1ccccc1C2=O | 97.9 |
| CC(=O)Nc1c2c(nn1-c1cccc(C)c1)CSC2 | 1.92 |
| Cc1ccc(-n2c(SCC(=O)N/N=C/C=C/c3ccccc3[N+](=O)[O-])nc3ccccc3c2=O)cc1 | 6.9 |
| CC(=O)Nc1cc(-c2ccc(N3CCN(C)CC3)cc2)cn2c(-c3ccc(F)cc3)cnc12 | -24.9 |
| CCN(CC)CCOc1ccc2c(c1)C(=NNC(=O)c1ccccn1)c1cc(OCCN(CC)CC)ccc1-2 | 109 |
| CCOC(=O)C1=C(CN2CCc3ccccc32)NC(=O)NC1c1cc(C)ccc1C (configuration not stated) | 34.6 |
| O=C(Cc1ccc([N+](=O)[O-])cc1)Nc1ccc(C(=O)N2CCOCC2)cc1 | -2.85 |
| Cc1ccc(C(=O)N2CCN(S(=O)(=O)N3CCOCC3)CC2)cc1 | 5.77 |
| Cc1cccc(-n2ncc(Cl)c(Cl)c2=O)c1 | 109 |
| OC[C@@H]1CN(C2CCCC2)C[C@H](n2cnc3c(NC4CCC4)ncnc32)O1 | 4.02 |
| CCOC(=O)C1=C(CN2CCc3ccccc32)NC(=O)NC1c1cccc([N+](=O)[O-])c1 (configuration not stated) | 43.4 |
| Cc1ccc(C)c(C(O)c2ncc(-c3cccc4ccccc34)[nH]2)c1 (configuration not stated) | 17.3 |
| Cc1cccc(-n2ncc3c(=O)[nH]c(SCC(=O)Nc4cc(C)on4)nc32)c1 | 15.5 |
| O=C(c1snnc1-c1ccccc1)N1CCOCC1 | 11.7 |
| Cc1ccc(NC(=O)Nc2cc(-c3ccccc3)nn2C)cc1Cl | 4.66 |
| CC(=O)Nc1ccc(-c2csc(NC(=O)Nc3ccccc3)n2)cc1 | 102 |
| O=[N+]([O-])/C(N=Nc1ccccc1)=N\Nc1ccccc1 | -2.71 |
| CCNC(=O)C1(C)CCCN(C(=O)c2c(C)noc2C)C1 (configuration not stated) | -5.02 |
| O=C(CN1C(=O)NC2(CCOc3ccccc32)C1=O)Nc1cccc([N+](=O)[O-])c1 (configuration not stated) | 10.4 |

====

In this section we review reported inhibition values for a set of molecules.
test: inhibition of PEG-3 promoter activity – cell-based, HeLa, luciferase luminescence, primary screen (AID 588405); settings: HeLa PEG-Prom luciferase reporter, overnight, at 20 µM, hits give high values
In all, about 360,000 compounds went through this assay and about 6,200 (1.7%) were called active. The full list was thinned out, with actives kept by preference.
READOUT_KIND: inhibition (%)

| MOLECULE | READOUT_KIND | VALUE_OBSERVED |
| --- | --- | --- |
| CCOC(=O)C1(Cc2ccccc2C)CCCN(C(=O)c2ccc(COC)o2)C1 (configuration not stated) | inhibition | -235 |
| CCOC(=O)C(=Cc1ccccc1OC)C(=O)OCC | inhibition | 33.3 |
| CCc1nc2ccc(C(=O)N3CCN(S(=O)(=O)CC)CC3)cn2c1N(C=O)CCC(C)C | inhibition | -6.03 |
| COc1ccc(Cl)cc1C=CC=Nc1ccc(S(N)(=O)=O)cc1 | inhibition | 7.02 |
| CCCNC(=O)C1(C)CCCN(C(=O)c2cccc(OC(C)=O)c2C)C1 (configuration not stated) | inhibition | -1.66 |
| Cn1c2ccccc2c(=O)c2c(=O)n(Cc3ccco3)c(COc3ccccc3)nc21 | inhibition | 50.5 |
| COc1ccccc1/C=C/C=N/NC(=O)CN1CCN(Cc2ccccc2)CC1 | inhibition | 3.31 |
| COc1ccc(CN2CCCCC2C)cc1OC (configuration not stated) | inhibition | 11.9 |
| O=C(NCc1cccc(C(F)(F)F)c1)c1ccc2sc(COCCO)nc2c1 | inhibition | -51.8 |
| CN(Cc1ccccc1)CC(O)COc1ccc(CNCc2cc3ccccc3s2)cc1 (configuration not stated) | inhibition | 50.3 |
| CCCc1nc2c(c(=O)c3ccccc3n2C)c(=O)n1C1CCCCCC1 | inhibition | -44.1 |
| Cc1csc(NC(=O)CSc2nc(=O)cc(N)n2-c2ccc(F)cc2)n1 | inhibition | 1.12 |
| CCOC(=O)c1cn(CC)c2cc(F)c(F)cc2c1=O | inhibition | -7.48 |
| CC(C)C[C@H](CO)Nc1nc(N(C)c2cccc(Cl)c2)c2ncn(C(C)C)c2n1 | inhibition | 12.4 |
| CCOC(=O)C(=Cc1ccccc1)C(=O)c1ccccc1 | inhibition | 103 |
| Cc1nc2scc(-c3cccs3)c2c(=O)n1N | inhibition | 3.36 |
| Cc1coc(C)c1C(=O)CC1(O)C(=O)N(C)c2ccc(Cl)cc21 (configuration not stated) | inhibition | 7.27 |
| CCC(C)C(CO)NC(=O)/C=C/[C@H]1O[C@@H](n2cnc3c(NC(=O)c4ccccc4)ncnc32)[C@H](O)[C@@H]1O (some centres not stated) | inhibition | 10.6 |
| CCC(C)(C)NC(=O)C(c1cccn1C)N(Cc1ccc(C)cc1)C(=O)Cn1nnc2ccccc21 (configuration not stated) | inhibition | 5.59 |
| CC(C)Cc1nnc(NC(=O)CCC(=O)Nc2ccc3cn[nH]c3c2)s1 | inhibition | 19.8 |
| CCOC(=O)CNC(=O)/C(=C\c1ccc(F)cc1)NC(=O)c1ccccc1 | inhibition | 10.4 |
| CC(C)(C)N1C(=O)c2c(C(=O)OCc3ccccc3)[nH]c(-c3ccccc3)c2C1=O | inhibition | 24.2 |
